assay: in vivo; details: rat, half-life of photosensitizer concentration in the heart, later phase
QUANTITY KIND: half-life (h)
Answers are plain numbers, in h.

Please report the measured half-life for C=Cc1c(C)c2cc3nc(c(CC(=O)N[C@@H](CC(=O)O)C(=O)O)c4[nH]c(cc5nc(cc1[nH]2)C(C)=C5CC)c(C)c4C(=O)O)[C@@H](CCC(=O)O)[C@@H]3C [talaporfin sodium, mono-L-aspartyl chlorine 6]
13.3

* * *

assay: Pharmacokinetics of talaporfin sodium, rat plasma; type: in vivo; details: intravenous, conditions of Experiment 4 (2 mg/kg, interval 60 min)
QUANTITY KIND: concentration at 60 min (ng/mL)
One number for each entry, in ng/mL.

Quote concentration at 60 min reported for C=Cc1c(C)c2cc3nc(c(CC(=O)N[C@@H](CC(=O)O)C(=O)O)c4[nH]c(cc5nc(cc1[nH]2)C(C)=C5CC)c(C)c4C(=O)O)[C@@H](CCC(=O)O)[C@@H]3C [talaporfin sodium, mono-L-aspartyl chlorine 6] please.
16000

* * *

experiment: in vivo; details: rat, half-life of photosensitizer concentration in the heart, 0 to 60 min
QUANTITY KIND: half-life (h)
Give bare numbers, in h.

Using known records, supply half-life for C=Cc1c(C)c2cc3nc(c(CC(=O)N[C@@H](CC(=O)O)C(=O)O)c4[nH]c(cc5nc(cc1[nH]2)C(C)=C5CC)c(C)c4C(=O)O)[C@@H](CCC(=O)O)[C@@H]3C [talaporfin sodium, mono-L-aspartyl chlorine 6]
1.08
